# Test system: MDA-MB-231 human breast cancer cells
# procedure.details: MTT assay for antiproliferative effects in MDA-MB-231
# Format: cell-based
# measurement.context: MDA-MB-231, MTT assay
measured.parameter: IC50 (µM)

>>> df
                                   compound                           target_desc  measured_parameter  number
0  CC/C(=C(\c1ccc(O)cc1)c1ccc(OCCN(C)C)cc1)c1ccccc1 [4-Hydroxytamoxifen, reference compound]  MDA-MB-231 human breast cancer cells                IC50      18
1  CCC(=C(c1ccc(O)cc1)c1ccc(OCCN(C)C(=O)/C(=C/c2ccc3ccccc3c2)c2cc(OC)c(OC)c(OC)c2)cc1)c1ccc(O)cc1 (mixture of isomers)  MDA-MB-231 human breast cancer cells                IC50    4.32
2  CCC(=C(c1ccc(O)cc1)c1ccc(OCCN(C)C(=O)/C(=C/c2ccc3c(c2)OCO3)c2ccc(OC)cc2)cc1)c1ccc(O)cc1 (mixture of isomers)  MDA-MB-231 human breast cancer cells                IC50    0.68

* * *

# target.desc: human ERβ (Homo sapiens)
# Sequence (Q92731 whole entry): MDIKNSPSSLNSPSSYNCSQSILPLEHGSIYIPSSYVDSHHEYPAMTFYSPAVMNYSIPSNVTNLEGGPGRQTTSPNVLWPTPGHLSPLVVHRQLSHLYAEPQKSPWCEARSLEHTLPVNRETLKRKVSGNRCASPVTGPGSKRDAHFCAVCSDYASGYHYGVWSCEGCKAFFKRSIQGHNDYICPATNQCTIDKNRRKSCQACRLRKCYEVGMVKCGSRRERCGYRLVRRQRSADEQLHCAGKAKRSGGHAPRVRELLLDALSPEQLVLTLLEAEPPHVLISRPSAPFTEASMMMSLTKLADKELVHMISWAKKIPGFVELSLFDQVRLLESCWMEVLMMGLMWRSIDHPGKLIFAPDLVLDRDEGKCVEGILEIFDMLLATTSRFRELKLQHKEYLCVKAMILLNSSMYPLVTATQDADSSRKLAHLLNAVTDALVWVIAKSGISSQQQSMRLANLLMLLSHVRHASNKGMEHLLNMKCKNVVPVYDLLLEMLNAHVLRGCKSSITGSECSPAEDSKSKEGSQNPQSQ
pIC50: −log10 of the molar value.
measured.parameter: pIC50

>>> df
                                   compound               target_desc  measured_parameter  number
0  CCC(=C(c1ccc(O)cc1)c1ccc(OCCNC)cc1)c1ccccc1 [Compound 11, reference compound]  human ERβ (Homo sapiens)               pIC50    6.93

* * *

# target.desc: human ERα (Homo sapiens)
# Construct: purchased Invitrogen; host or cells: baculovirus expression system
# Sequence (P03372 1-595): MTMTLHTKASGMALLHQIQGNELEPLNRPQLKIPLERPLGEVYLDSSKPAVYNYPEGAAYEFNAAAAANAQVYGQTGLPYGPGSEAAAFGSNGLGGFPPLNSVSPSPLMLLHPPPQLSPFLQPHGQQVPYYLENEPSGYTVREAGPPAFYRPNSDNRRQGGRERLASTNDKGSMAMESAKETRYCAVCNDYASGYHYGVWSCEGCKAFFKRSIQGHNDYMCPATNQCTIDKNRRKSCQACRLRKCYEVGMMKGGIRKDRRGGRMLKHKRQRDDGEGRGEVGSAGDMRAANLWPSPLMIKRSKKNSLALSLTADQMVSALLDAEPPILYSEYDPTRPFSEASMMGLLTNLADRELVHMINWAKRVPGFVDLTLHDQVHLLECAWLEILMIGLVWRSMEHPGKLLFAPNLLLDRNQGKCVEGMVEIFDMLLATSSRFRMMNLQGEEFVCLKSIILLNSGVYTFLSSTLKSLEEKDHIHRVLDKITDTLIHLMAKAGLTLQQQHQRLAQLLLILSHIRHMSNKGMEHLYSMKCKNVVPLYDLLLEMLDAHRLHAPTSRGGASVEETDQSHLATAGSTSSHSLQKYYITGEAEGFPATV
# procedure.details: Estrogen receptor fluorescence polarisation competitive binding assay, ERα
# measurement.context: competitive binding, fluoromone ligand
measured.parameter: IC50

In [3]: df
Out[3]:
                                   molecule               target_desc  measured_parameter    result
0  CCC(=C(c1ccc(O)cc1)c1ccc(OCCNC)cc1)c1ccccc1 [Compound 11, reference compound]  human ERα (Homo sapiens)                IC50  0.047 µM

* * *

Listed compounds paired with reported pIC50
# System: MDA-MB-231 human breast cancer cells
# procedure.details: MTT assay for antiproliferative effects in MDA-MB-231
# Format: cell-based
# measurement.context: MDA-MB-231, MTT assay
pIC50: −log10 of the molar value.

compound	relation	pIC50
CCC(=C(c1ccc(O)cc1)c1ccc(OCCN(C)C(=O)/C(=C/c2ccc(Br)cc2)c2cc(OC)c(OC)c(OC)c2)cc1)c1ccccc1 (mixture of isomers) [Compound 41]	<	4.30
CCC(=C(c1ccc(O)cc1)c1ccc(OCCN(C)C(=O)/C(=C/c2ccc(OC)c(O)c2)c2cc(OC)c(OC)c(OC)c2)cc1)c1ccc(O)cc1 (mixture of isomers) [Compound 28]	=	5.61
COc1ccc(/C=C\c2cc(OC)c(OC)c(OC)c2)cc1O [Compound 26, Combretastatin A-4, reference compound]	=	7.37
CCC(=C(c1ccc(O)cc1)c1ccc(OCCN(C)C(=O)/C(=C/c2ccc(OC)cc2)c2cc(OC)c(OC)c(OC)c2)cc1)c1ccc(O)cc1 (mixture of isomers) [Compound 30]	=	5.20
CCC(=C(c1ccc(O)cc1)c1ccc(OCCN(C)C(=O)/C(=C/c2ccc(OC)c(F)c2)c2cc(OC)c(OC)c(OC)c2)cc1)c1ccc(O)cc1 (mixture of isomers) [Compound 44]	=	5.73

* * *

# Tested on: MCF-7 human breast cancer cells
# procedure.details: MTT assay for antiproliferative effects in MCF-7
# Type: cell-based
# measurement.context: Homo sapiens, MCF7, MCF-7, MTT assay; mean of at least three experiments in triplicate
pIC50: −log10 of the molar value.
Listed compounds paired with reported pIC50
measured.parameter: pIC50

>>> print(df.to_string())
                                    compound  relation  number
 0  CCC(=C(c1ccc(O)cc1)c1ccc(OCCN(C)C(=O)/C(=C/c2ccc3c(c2)OCO3)c2ccc(OC)cc2)cc1)c1ccc(O)cc1 (mixture of isomers)         =    7.31
 1  CCC(=C(c1ccc(O)cc1)c1ccc(OCCN(C)C(=O)/C(=C/c2ccc(OC)c(O)c2)c2cc(OC)c(OC)c(OC)c2)cc1)c1ccc(O)cc1 (mixture of isomers)         =    8.30
 2  CCC(=C(c1ccc(O)cc1)c1ccc(OCCN(C)C(=O)/C(=C/c2ccc(C)cc2)c2cc(OC)c(OC)c(OC)c2)cc1)c1ccc(O)cc1 (mixture of isomers)         =    6.43
 3  COc1ccc(/C=C(/C(=O)N2CCCC2)c2cc(OC)c(OC)c(OC)c2)cc1         <    4.30
 4  COc1ccc(/C(=C\c2cc(OC)c(OC)c(OC)c2)C(=O)N2CCCC2)cc1         <    4.30
 5  COc1ccc(/C=C(/C(=O)O)c2cc(OC)c(OC)c(OC)c2)cc1N         >    5.00
 6  COc1cc(/C(=C\c2ccc(SC)cc2)C(=O)O)cc(OC)c1OC         =    4.97
 7  CCC(=C(c1ccc(O)cc1)c1ccc(OCCN(C)C(=O)/C(=C/c2ccc(Br)cc2)c2cc(OC)c(OC)c(OC)c2)cc1)c1ccc(O)cc1 (mixture of isomers)         =    5.63
 8  CCC(=C(c1ccc(O)cc1)c1ccc(OCCN(C)C(=O)/C(=C/c2ccc(OC)c(F)c2)c2cc(OC)c(OC)c(OC)c2)cc1)c1ccc(O)cc1 (mixture of isomers)         =    6.71
 9  COc1ccc(/C=C(/C(=O)N2CCCC2)c2cc(OC)c(OC)c(OC)c2)cc1N         <    4.30
10  COc1cc(/C(=C\c2ccc(F)cc2)C(=O)O)cc(OC)c1OC         <    4.30
11  CCC(=C(c1ccc(O)cc1)c1ccc(OCCNC)cc1)c1ccccc1 [Compound 11, reference compound]         =    7.54
12  CCC(=C(c1ccc(O)cc1)c1ccc(OCCN(C)C(=O)/C(=C/c2ccc(SC)cc2)c2cc(OC)c(OC)c(OC)c2)cc1)c1ccc(O)cc1 (mixture of isomers)         =    7.19
13  CCC(=C(c1ccc(O)cc1)c1ccc(OCCN(C)C(=O)/C(=C/c2ccc(OC)c(N)c2)c2cc(OC)c(OC)c(OC)c2)cc1)c1ccc(O)cc1 (mixture of isomers)         =    5.21
14  CCC(=C(c1ccc(O)cc1)c1ccc(OCCN(C)C(=O)/C(=C/c2cc(OC)c(OC)c(OC)c2)c2ccc(OC)cc2)cc1)c1ccccc1 (mixture of isomers)         =    5.68
15  COc1ccc(/C=C(/C(=O)O)c2cc(OC)c(OC)c(OC)c2)cc1F         =    4.26
16  COc1ccc(/C=C(/C(=O)O)c2cc(OC)c(OC)c(OC)c2)cc1         >    5.00
17  CCC(=C(c1ccc(O)cc1)c1ccc(OCCN(C)C(=O)/C(=C/c2ccc(OC)cc2)c2cc(OC)c(OC)c(OC)c2)cc1)c1ccccc1 (mixture of isomers)         =    7.06
18  CCC(=C(c1ccc(O)cc1)c1ccc(OCCN(C)C(=O)/C(=C/c2ccc(C)cc2)c2cc(OC)c(OC)c(OC)c2)cc1)c1ccccc1 (mixture of isomers)         =    5.76
